- Measurement Target: recombinant α-syn fibrils (Homo sapiens, UniProt P37840)
- Construct: made in house
- Assay: Competition binding assay against [^3H]PiB, α-syn fibrils
- Experimental Context: ratio of Ki, [^3H]PiB was used
Measurement Type: Selectivity Aβ/α-syn
Write the number on its own, no unit after it.

FCCOCCOc1cnc(-c2csc(-c3nc(-c4ccc5c(c4)OCO5)cs3)n2)nc1 : 19.8

For record "COc1ccc(-c2csc(-c3nc(-c4cnc5c(c4)OCO5)cs3)n2)cc1" the listed Selectivity Aβ/α-syn is 94.1

For record "Fc1ccc(-c2csc(-c3nc(-c4cnc5c(c4)OCO5)cs3)n2)cn1" the listed Selectivity Aβ/α-syn is 125.8

For record "FCCOc1cnc(-c2csc(-c3nc(-c4cnc5c(c4)OCO5)cs3)n2)nc1" the listed Selectivity Aβ/α-syn is 122.6

For record "Fc1ccc(-c2csc(-c3nc(-c4ccc5c(c4)OCO5)cs3)n2)cn1" the listed Selectivity Aβ/α-syn is 60.1

For record "FCCOc1ccc(-c2csc(-c3nc(-c4ccc5c(c4)OCO5)cs3)n2)cc1" the listed Selectivity Aβ/α-syn is 26.9

For record "COc1ccc(-c2csc(-c3nc(-c4ccc5c(c4)OCO5)cs3)n2)cc1OCCOCCOCCF" the listed Selectivity Aβ/α-syn is 120.8

For record "COc1cnc(-c2csc(-c3nc(-c4ccc5c(c4)OCO5)cs3)n2)nc1" the listed Selectivity Aβ/α-syn is 24.2

For record "FCCOCCOCCOc1cnc(-c2csc(-c3nc(-c4cnc5c(c4)OCO5)cs3)n2)nc1" the listed Selectivity Aβ/α-syn is 122.6

----------
- Measurement Target: tau fibrils (Homo sapiens, UniProt P10636)
- Sequence (P10636 2-758): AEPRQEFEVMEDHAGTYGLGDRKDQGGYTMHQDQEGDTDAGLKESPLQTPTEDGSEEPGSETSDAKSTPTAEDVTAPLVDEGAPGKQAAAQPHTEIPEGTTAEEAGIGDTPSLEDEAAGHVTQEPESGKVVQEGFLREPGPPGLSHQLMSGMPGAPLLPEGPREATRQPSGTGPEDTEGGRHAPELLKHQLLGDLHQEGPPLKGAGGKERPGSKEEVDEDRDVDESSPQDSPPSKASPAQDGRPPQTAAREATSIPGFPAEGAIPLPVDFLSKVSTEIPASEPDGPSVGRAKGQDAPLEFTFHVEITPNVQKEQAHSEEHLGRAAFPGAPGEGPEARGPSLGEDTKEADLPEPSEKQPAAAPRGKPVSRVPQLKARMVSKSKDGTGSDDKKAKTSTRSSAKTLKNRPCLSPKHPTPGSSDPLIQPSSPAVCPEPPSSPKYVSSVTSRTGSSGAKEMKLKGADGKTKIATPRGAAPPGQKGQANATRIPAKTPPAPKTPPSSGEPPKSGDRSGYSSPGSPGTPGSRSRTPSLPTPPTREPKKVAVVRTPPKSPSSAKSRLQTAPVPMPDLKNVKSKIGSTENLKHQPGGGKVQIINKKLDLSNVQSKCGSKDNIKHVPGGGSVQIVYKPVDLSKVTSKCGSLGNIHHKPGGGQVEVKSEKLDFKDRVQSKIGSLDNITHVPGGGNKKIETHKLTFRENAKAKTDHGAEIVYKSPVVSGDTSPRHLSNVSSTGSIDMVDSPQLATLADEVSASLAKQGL
- Assay: Competition binding assay against [^3H]PiB, tau fibrils
Measurement Type: Ki

Known Ki results, listed for orientation:
COc1ccc(-c2csc(-c3nc(-c4cnc5c(c4)OCO5)cs3)n2)cc1 : 513 nM
FCCOc1cnc(-c2csc(-c3nc(-c4cnc5c(c4)OCO5)cs3)n2)nc1 : 766 nM
Fc1ncc(-c2csc(-c3nc(-c4cnc5c(c4)OCO5)cs3)n2)cn1 : 434 nM
FCCOCCOCCOc1ccc(-c2csc(-c3nc(-c4cnc5c(c4)OCO5)cs3)n2)cc1 : 983 nM

For record "COc1ccc(-c2csc(-c3nc(-c4cnc5c(c4)OCO5)cs3)n2)cc1F" the listed Ki is 364 nM

----------
- Measurement Target: recombinant α-syn fibrils (Homo sapiens)
- Construct: made in house
- Assay: Competition binding assay against [^3H]DCVJ, α-syn fibrils
- Experimental Context: ratio of Ki, [^3H]DCVJ was used
The entries below come with measured Selectivity tau/α-syn values attached.

Known Selectivity tau/α-syn results, listed for orientation:
COc1ccc(-c2csc(-c3nc(-c4cnc5c(c4)OCO5)cs3)n2)cc1F : >1515.2
Fc1ccc(-c2csc(-c3nc(-c4cnc5c(c4)OCO5)cs3)n2)cn1 : >10,000.0
COc1ccc(-c2csc(-c3nc(-c4ccc5c(c4)OCO5)cs3)n2)cc1F [d2] : >819.7

Attention now shifts to the item below.
For record "Fc1ncc(-c2csc(-c3nc(-c4cnc5c(c4)OCO5)cs3)n2)cn1" the listed Selectivity tau/α-syn is >735.3

----------
- Measurement Target: recombinant α-syn fibrils (Homo sapiens)
- Construct: made in house
- Assay: Competition binding assay against [^3H]DCVJ, α-syn fibrils
- Experimental Context: [^3H]DCVJ was used (10 nM); α-synuclein aggregates 125 nM
The entries below come with measured Ki values attached.
State just the number; it will be interpreted in nM.

Known Ki results, listed for orientation:
FCCOCCOCCOc1ccc(-c2csc(-c3nc(-c4cnc5c(c4)OCO5)cs3)n2)cc1F [f10] : 1
FCCOc1cnc(-c2csc(-c3nc(-c4ccc5c(c4)OCO5)cs3)n2)nc1 [f5] : 2.27
FCCOCCOCCOc1cnc(-c2csc(-c3nc(-c4ccc5c(c4)OCO5)cs3)n2)nc1 [f7] : 1.51
FCCOCCOc1cnc(-c2csc(-c3nc(-c4ccc5c(c4)OCO5)cs3)n2)nc1 [f6] : 0.5

For record FCCOc1cnc(-c2csc(-c3nc(-c4cnc5c(c4)OCO5)cs3)n2)nc1 [f4] the listed Ki is 0.99
